Test system: HL-60(TB) leukemia
Test: NCI tumour cell line growth inhibition, 48 h
Kindly supply the reported GI50 values for the records listed here.

Challenge: Input CN(CCCCCl)P(=O)(OCc1ccc([N+](=O)[O-])o1)C(F)(F)c1ccc(CC(=O)N[C@@H](CC(=O)O)C(=O)N[C@@H](Cc2ccc(C(F)(F)P(=O)(OCc3ccc([N+](=O)[O-])o3)N(C)CCCCCl)cc2)C(N)=O)cc1 (stereo partly drawn) , output reported GI50.
Response given: 28000 nM

Challenge: Input CCOC(=O)c1ccc2c(c1)[n+](=O)c(C(=O)c1ccc3ccccc3c1)c(C(F)(F)F)n2[O-] , output reported GI50.
Response given: 980 nM

Challenge: Input COc1cc(C(=O)NC2CCN(C)CC2)ccc1Nc1ncc2c(n1)N(C1CCCC1)CC(F)(F)C(=O)N2C , output reported GI50.
Response given: < 10 nM

Challenge: Input CCc1ccc(CCC(=O)Nc2ncc(Cc3cc(Cl)ccc3Cl)s2)o1 , output reported GI50.
Response given: 887 nM

Challenge: Input COc1ccc2nc3cccc([N+](=O)[O-])c3c(NCCN(CCO)CCO)c2c1 , output reported GI50.
Response given: 23.5 nM

Challenge: Input O=C(CCc1nnc(-c2c(Cl)cccc2Cl)o1)c1nc2ccccc2[nH]1 , output reported GI50.
Response given: 2230 nM

Challenge: Input Fc1ccc(-c2ncn(C3CCNCC3)c2-c2ccnc(Oc3ccccc3)n2)cc1 , output reported GI50.
Response given: > 16600 nM

Challenge: Input O=C(/C=C/C=C/c1ccccc1)c1ccc(Nc2nc(Nc3ccccc3)nc(Nc3ccccc3)n2)cc1 , output reported GI50.
Response given: 28700 nM

* * *

Test system: SK-MEL-28 melanoma
Experiment: NCI tumour cell line growth inhibition, 48 h
measured_endpoint: TGI

Challenge: Input Nc1ccn([C@H]2CO[C@@H](CO)O2)c(=O)n1 , output reported TGI.
Response given: > 100 µM

Challenge: Input Cc1nc2c(=O)[nH]c3ccccc3c2o1 , output reported TGI.
Response given: > 100 µM

Challenge: Input C[N+](C)(C)CCC(=O)N1C/C(=C\c2ccccc2)C(=O)/C(=C/c2ccccc2)C1 , output reported TGI.
Response given: 15.4 µM

Challenge: Input COc1ccc(N2C(=O)C3c4[nH]c5ccccc5c4C4CCCCCCCC4C3C2=O)cc1 (centres undefined) , output reported TGI.
Response given: > 10 µM

Challenge: Input Cn1cc(C2=C(c3c4n(c5ccccc35)CC(CN)C4)C(=O)NC2=O)c2ccccc21 (centres undefined) , output reported TGI.
Response given: 7.01 µM

Challenge: Input CC1=NN(C(=O)CC(=O)Nc2ccccc2C)C(=O)C1N=Nc1ccc(S(=O)(=O)c2ccc(N=NC3C(=O)N(C(=O)CC(=O)Nc4ccccc4C)N=C3C)cc2)cc1 (centres undefined) , output reported TGI.
Response given: > 100 µM

Challenge: Input CN(C)C(=S)N/N=C\C(=N/NC(=S)N(C)C)c1ccccc1 , output reported TGI.
Response given: > 100 µM

Challenge: Input O=C(CCc1nnc2s/c(=C\c3ccc4c(c3)OCO4)c(=O)n12)Nc1cc(Cl)ccc1Cl , output reported TGI.
Response given: > 100 µM

Challenge: Input CC(C)c1ccc2c(N=Nc3ccc(S(N)(=O)=O)cc3)c(O)[nH]c2c1 , output reported TGI.
Response given: > 25 µM
